# Assay comment: Pharmacokinetic studies in CD-1 mice
# Experimental context: Swiss albino CD-1, mouse, whole blood, iv, 12.5 mg/kg
Value type: Vd (L/kg)
One number for each entry, in L/kg.

Consider the worked cases shown below.
CC[C@H]1OC(=O)[C@H](C)[C@@H](O[C@H]2C[C@@](C)(OC)[C@@H](O)[C@H](C)O2)[C@H](C)[C@@H](O[C@@H]2O[C@H](C)C[C@H](N(C)C)[C@H]2O)[C@](C)(O)C[C@@H](C)CN(CCCNc2ccnc3cc(Cl)ccc23)[C@H](C)[C@@H](O)[C@]1(C)O | 4.42
CC[C@H]1OC(=O)[C@H](C)[C@@H](O)[C@H](C)[C@@H](O[C@@H]2O[C@H](C)C[C@H](N(C)C)[C@H]2OCCCNc2ccnc3ccccc23)[C@](C)(O)C[C@@H](C)CN[C@H](C)[C@@H](O)[C@]1(C)O | 13.4
CC[C@H]1OC(=O)[C@H](C)[C@@H](O[C@H]2C[C@@](C)(OC)[C@@H](O)[C@H](C)O2)[C@H](C)[C@@H](O[C@@H]2O[C@H](C)C[C@H](N(C)C)[C@H]2O)[C@](C)(O)C[C@@H](C)CN(C)[C@H](C)[C@@H](O)[C@]1(C)O [Azithromycin, reference compound] | 29.2

// switching to the query compound
Query: Look at this compound and give its reported Vd. CC[C@H]1OC(=O)[C@H](C)[C@@H](O[C@H]2C[C@@](C)(OC)[C@@H](O)[C@H](C)O2)[C@H](C)[C@@H](O[C@@H]2O[C@H](C)C[C@H](N(C)C(C)=O)[C@H]2O)[C@](C)(O)C[C@@H](C)CN(CCCNC(=O)Nc2ccc3ccccc3c2)[C@H](C)[C@@H](O)[C@]1(C)O
Reply: 0.708
